Target: human TAS1R2-WT/TAS1R3-R813K (Homo sapiens, UniProt Q7RTX0+Q8TE23, R813K)
Construct: expressed in transfected cells; host or cells: HEK293T stably expressing Gα16gust44
Sequence (Q8TE23 20-839): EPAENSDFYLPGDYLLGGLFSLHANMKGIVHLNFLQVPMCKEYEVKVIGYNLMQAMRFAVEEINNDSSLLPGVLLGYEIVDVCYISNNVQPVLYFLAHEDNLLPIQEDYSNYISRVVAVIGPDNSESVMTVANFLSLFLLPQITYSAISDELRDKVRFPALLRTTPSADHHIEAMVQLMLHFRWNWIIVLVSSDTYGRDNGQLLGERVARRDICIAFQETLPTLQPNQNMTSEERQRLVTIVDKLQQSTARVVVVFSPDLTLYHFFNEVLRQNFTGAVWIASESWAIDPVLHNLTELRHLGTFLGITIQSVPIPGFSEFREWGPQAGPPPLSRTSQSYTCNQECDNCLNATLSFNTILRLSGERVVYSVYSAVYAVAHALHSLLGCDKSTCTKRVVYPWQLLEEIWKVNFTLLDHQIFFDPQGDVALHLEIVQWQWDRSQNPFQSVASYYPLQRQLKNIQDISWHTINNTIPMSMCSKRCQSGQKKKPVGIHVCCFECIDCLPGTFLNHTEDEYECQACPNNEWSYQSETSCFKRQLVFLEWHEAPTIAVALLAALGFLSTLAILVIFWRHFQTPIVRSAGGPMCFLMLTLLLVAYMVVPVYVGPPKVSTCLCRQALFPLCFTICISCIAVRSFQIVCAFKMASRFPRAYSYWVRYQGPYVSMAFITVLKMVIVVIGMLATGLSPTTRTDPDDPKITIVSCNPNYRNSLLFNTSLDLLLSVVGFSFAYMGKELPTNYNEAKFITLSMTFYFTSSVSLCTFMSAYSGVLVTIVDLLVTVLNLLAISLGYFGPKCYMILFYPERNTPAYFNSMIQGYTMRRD
Sequence (Q7RTX0 21-852 R813K): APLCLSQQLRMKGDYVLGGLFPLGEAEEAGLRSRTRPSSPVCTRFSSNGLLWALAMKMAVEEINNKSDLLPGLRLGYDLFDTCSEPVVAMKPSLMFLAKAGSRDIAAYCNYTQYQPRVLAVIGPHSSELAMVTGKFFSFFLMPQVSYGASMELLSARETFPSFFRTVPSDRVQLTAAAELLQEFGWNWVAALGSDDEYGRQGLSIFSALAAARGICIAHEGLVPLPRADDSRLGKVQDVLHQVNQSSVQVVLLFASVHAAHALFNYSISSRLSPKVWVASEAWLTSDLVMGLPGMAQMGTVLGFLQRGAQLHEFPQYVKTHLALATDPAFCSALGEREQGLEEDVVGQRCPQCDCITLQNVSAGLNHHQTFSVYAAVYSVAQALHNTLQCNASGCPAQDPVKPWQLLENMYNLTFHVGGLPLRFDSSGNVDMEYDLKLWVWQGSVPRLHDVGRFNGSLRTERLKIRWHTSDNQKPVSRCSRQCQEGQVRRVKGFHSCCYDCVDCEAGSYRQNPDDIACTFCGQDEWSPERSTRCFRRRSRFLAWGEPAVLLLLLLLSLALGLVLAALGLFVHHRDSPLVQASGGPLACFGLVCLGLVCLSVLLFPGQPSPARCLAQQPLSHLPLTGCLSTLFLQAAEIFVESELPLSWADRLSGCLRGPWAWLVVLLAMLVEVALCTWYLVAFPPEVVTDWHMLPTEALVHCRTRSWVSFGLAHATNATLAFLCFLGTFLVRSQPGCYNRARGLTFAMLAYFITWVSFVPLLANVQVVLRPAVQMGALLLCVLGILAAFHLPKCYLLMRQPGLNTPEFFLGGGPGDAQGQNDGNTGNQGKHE
Test: Calcium mobilisation assay, TAS1R2-WT with TAS1R3 variant R813K
Format: cell-based
Conditions: read-out: EC50
Metric Name: pEC50
When answering, recall that pEC50 equals minus log10 of the concentration in mol/L, and write that number alone.

// below: answered compounds
Compound	Assay System	pEC50
C[C@H](CC[C@@H](O[C@@H]1O[C@H](CO[C@@H]2O[C@H](CO)[C@@H](O)[C@H](O)[C@H]2O)[C@@H](O)[C@H](O)[C@H]1O[C@@H]1O[C@H](CO)[C@@H](O)[C@H](O)[C@H]1O)C(C)(C)O)[C@H]1CC[C@@]2(C)[C@@H]3CC=C4[C@@H](CC[C@H](O[C@@H]5O[C@H](CO[C@@H]6O[C@H](CO)[C@@H](O)[C@H](O)[C@H]6O)[C@@H](O)[C@H](O)[C@H]5O)C4(C)C)[C@]3(C)[C@H](O)C[C@]12C [Mogroside V, mogroside V]	human TAS1R2-WT/TAS1R3-R813K (Homo sapiens, UniProt Q7RTX0+Q8TE23, R813K)	4.66
COC(=O)[C@H](Cc1ccccc1)NC(=O)[C@H](CC(=O)O)NCCC(C)(C)C	human TAS1R2-WT/TAS1R3-R813K (Homo sapiens, UniProt Q7RTX0+Q8TE23, R813K)	6.01
O=S(=O)(O)NC1CCCCC1 [Cyclamate, cyclamate]	human TAS1R2-WT/TAS1R3-R813K (Homo sapiens, UniProt Q7RTX0+Q8TE23, R813K)	2.88

Next up:
Using human TAS1R2-WT/TAS1R3-R813K (Homo sapiens, UniProt Q7RTX0+Q8TE23, R813K) as the test system, report measured pEC50 of CC1=CC(=O)NS(=O)(=O)O1 .
3.36
